targetOrTestSystem: full-length human AR (Homo sapiens)
Construct: expression vector encoding full-length human AR
experiment: AR antagonism, reporter gene assay in hAR/HEK293 cells
testContext: HEK293 cells stably transfected with full-length human AR and androgen responsive luciferase reporter; co-treated with submaximal testosterone (usually 0.45 nM); 1% DMSO; triplicates
valueType: pIC50
# pIC50: negative log10 of molar concentration; output just the value

For this compound ( CCN(c1ccc(C#N)c(C(F)(F)F)c1)C1CCC=C(c2cncn2CC)C1 (single isomer, unassigned; isomer 4) [Ex. 208 1,5-isomer] ), measured pIC50 is 7.47

Lab note: measured pIC50 of CCN(c1ccc(C#N)c(C(F)(F)F)c1)C1CC=C(c2cnco2)C1 (single isomer, unassigned) [Ex. 233 enantiomer 1] was 7.23

For reference, reported pIC50 for CCN(c1ccc(C#N)c(Cl)c1C)C1CCCC(n2ccnc2)C1 (single isomer, unassigned) stands at 7.22

GET /value?item= CCN(c1ccc(C#N)c(Cl)c1)C1CC=C(c2cncn2CC)C1 (racemic) [Ex. 227 racemate] &field=pIC50 returns 7.24

The recorded pIC50 for CN(c1ccc(C#N)c(C(F)(F)F)c1)[C@@H]1C=C(n2ccnc2)[C@@H](O)CC1(C)C is 7.05

Entry under test: CCN(c1ccc(C#N)c(C(F)(F)F)c1)C1CCCC(n2cccn2)C1 (single isomer, unassigned; diastereomer 4) [Ex. 48 cis-diastereomer] . Its pIC50 was 7.62

// CCN(c1ccc(C#N)c(C(F)(F)F)c1)C1C=C(n2ccnc2)CCC1 (stereo not shown) : pIC50 value = 7.47

====

targetOrTestSystem: 17,20 lyase (CYP17) (Homo sapiens, UniProt P05093)
Construct: endogenous in cells; host or cells: H295R human adrenocortical carcinoma cells
experiment: 17,20 lyase (CYP17) inhibition, acetic acid release assay (AARA) on H295R cells
Format: cell-based
Assign labels as follows, please: class 1 for IC50 below 90 nM; class 0 for IC50 equal to or exceeding 90 nM.

Q) Could you please tell me whether IC50 recorded for CCN(c1ccc(C#N)c(C(F)(F)F)c1)C1CC=C(c2cncn2C(C)C)C1 (single isomer, unassigned) [Ex. 51 enantiomer 2] is less than 90 nM?
A) class 0

Q) Please let me know if CCN(c1ccc(C#N)c(C(F)(F)F)c1)C1CCC(n2ccnc2)C1 (single isomer, unassigned) [Ex. 86 trans-enantiomer 1] shows IC50 below 90 nM.
A) class 1

Q) API: query returns whether the compound falls strictly under 90 nM in IC50. Query: CCN(c1ccc(C#N)c(C(F)(F)F)c1)C1CCC=C(c2ccncc2OC)C1 (single isomer, unassigned; isomer 4) [Ex. 84 3,4-isomer]
A) class 0

Q) Dear reviewer, please state whether CN(c1ccc(C#N)c(Cl)c1)[C@@H]1C=C(n2ccnc2)[C@H](O)CC1(C)C (single isomer, unassigned; enantiomer 1) [Ex. 253(b)] has IC50 strictly beneath 90 nM.
A) class 0

Q) Identify whether the compound CN(c1ccc(C#N)c(C(F)(F)F)c1)[C@@H]1C=C(n2ccnc2)[C@H](O)CC1(C)C (relative stereo) [Ex. 236] records IC50 below 90 nM.
A) class 0

Q) Threshold test, IC50 < 90 nM: CCN(c1ccc(C#N)c(Cl)c1)C1CCCC(n2ccnc2)C1 (single isomer, unassigned; diastereomer 4) [Ex. 91 cis-diastereomer]
A) class 1

Q) Quick check: does CCN(c1ccc(C#N)c(C(F)(F)F)c1)C1C=C(n2ccnc2)C2(CC1)CC2 (stereo not shown) [Ex. 107] have IC50 under 90 nM?
A) class 1

Q) I wonder whether CCN(c1ccc(C#N)c(C(F)(F)F)c1)C1C=C(n2ccnc2)CCC1 (stereo not shown) [Ex. 63] has IC50 below 90 nM. Can you tell?
A) class 1

Q) Strictly below 90 nM: is that where IC50 of CCN(c1ccc(C#N)c(C(F)(F)F)c1)C1CCCC(n2cncn2)C1 (single isomer, unassigned; diastereomer 4) [Ex. 209 cis-diastereomer] sits?
A) class 0

Q) Below 90 nM on IC50? Entry CCN(c1ccc(C#N)c(C(F)(F)F)c1)[C@@H]1CCCN(c2ccncc2F)C1 [Ex. 160]
A) class 0

Q) Does the reported IC50 of the following compound sit strictly below 90 nM? CCN(c1ccc(C#N)c(C(F)(F)F)c1)C1CCC=C(c2cncn2CC)C1 (single isomer, unassigned; isomer 4) [Ex. 208 1,5-isomer]
A) class 0

Q) Is the reported IC50 for CCCn1cncc1C1=CCC(N(CC)c2ccc(C#N)c(C(F)(F)F)c2)C1 (stereo not shown) [Ex. 103] strictly below 90 nM?
A) class 1

Q) Identify whether the compound CCN(c1ccc(C#N)c(C(F)(F)F)c1)C1CC(CO)=C(n2ccnc2)C1(C)C (single isomer, unassigned) [Ex. 270 enantiomer 1] records IC50 below 90 nM.
A) class 0

Q) is_below(IC50, 90 nM) for CCn1cncc1C1=CCC(N(CC2CC2)c2ccc(C#N)c(C(F)(F)F)c2)C1 (racemic) [Ex. 226 racemate] ?
A) class 1

Q) Consider CCN(c1ccc(C#N)c(C(F)(F)F)c1)[C@H]1CCC[C@@H](c2ccncc2)C1 (relative stereo) [Ex. 61] . Does its IC50 lie strictly below 90 nM?
A) class 0

Q) I wonder whether CCN(c1ccc(C#N)c(C(F)(F)F)c1)C1CC=C(c2cncn2C2CC2)C1 (racemic) [Ex. 53] has IC50 below 90 nM. Can you tell?
A) class 1

Q) Decide: IC50 of CCN(c1ccc(C#N)c(C(F)(F)F)c1)C1CC(n2ccnc2)CCC1(C)C (single isomer, unassigned) [Ex. 46 cis-enantiomer 2] strictly below 90 nM?
A) class 1

Q) Consider the compound CCN(c1ccc(C#N)c(C(F)(F)F)c1)C1CC=C(c2cnco2)C1 (single isomer, unassigned) [Ex. 233 enantiomer 1] . Is its IC50 strictly less than 90 nM?
A) class 1

Q) Strictly below 90 nM: is that where IC50 of CCN(c1ccc(C#N)c(Cl)c1)C1CC=C(c2cncn2CC)C1 (racemic) [Ex. 227 racemate] sits?
A) class 1

Q) Please state whether IC50 is below 90 nM for CCN(c1ccc(C#N)c(C(F)(F)F)c1)C1CC=C(n2ccnc2)C1(C)C (stereo not shown) [Ex. 275]
A) class 1

Q) Below 90 nM on IC50? Entry CCN(c1ccc(C#N)c(Cl)c1)C1C=C(n2ccnc2)CCC1(C)C (single isomer, unassigned; enantiomer 1) [Ex. 21]
A) class 1
